// reported LC50 MW per item
- Test system: Maize weevil [Sitophilus Zeamais (Motschulsky)]
- assay text: Maize weevil test (MW)
- Type: in vivo
- cond: adult weevils, treated corn seeds, 48 hours, percent in solution

Solved entries:
sample smiles	recorded measurement
Cc1cc(N=C(OCc2ccc(F)c(Oc3ccc(Cl)cc3)c2)C(C)C)ccc1Br	> 0.01%
CCc1ccc(N=C(OCc2cccc(Oc3ccccc3)c2)C(C)(C)C)cc1	> 0.01%
CC(C)C(=Nc1cccc(C(F)(F)F)c1)OCc1coc(Cc2ccccc2)c1	> 0.01%

INPUT: Kindly indicate its recorded LC50 MW. Item: `CC(C)C(=Nc1ccc2c(c1)OCO2)OCc1cccc(Oc2ccc(C(C)(C)C)cc2)c1`
OUTPUT: > 0.01%
